The reported numbers originate from PubChem BioAssay (NCI).

System: OVCAR-4 ovarian
Assay: NCI tumour cell line growth inhibition, 48 h; in the data active = GI50 below about 0.43 µM; inactive = the rest
// one of active, inactive, no free text

Reference set, count: 4
compound: N#C/C(=C/C=C/c1cccc(Cl)c1)S(=O)c1ccccc1 (stereo unspecified)
classification: active
--
compound: CSCc1ncc(-c2ccc(C(F)(F)F)cc2)c(NC2CCCCCC2)n1
classification: inactive
--
compound: CSC(=S)NCc1cn(C)c2ccccc12
classification: inactive
--
compound: N.N.N.N.O=S([O-])[O-].[Co+3].[N-]=[N+]=[N-]
classification: inactive

Query: # outcome recorded in this test, key = O=C(O)C(Cc1ccccc1)N1C(=O)/C(=C/C(Cl)=C/c2ccc([N+](=O)[O-])cc2)SC1=S (stereo unspecified)
Result: inactive

Query: For "COc1cc(N)c(Cl)cc1C(=O)N[C@@H]1CCN(CCCOc2ccc(F)cc2)C[C@@H]1OC" , what call appears in the results of this test?
Result: inactive

###

Test system: SNB-19 CNS
Experiment: NCI tumour cell line growth inhibition, 48 h
We begin with a simple list: items and their reported log10 of TGI.
Hi team, quick reminder: these entries are log10 of TGI (µM).

compound: COc1ccc(CN2c3ccccc3Sc3ccccc32)cc1O
log10 of TGI: 1.43

compound: CC(=O)c1nc(-c2ccc(C[C@@H](CNC(=O)CN(C)C)NC(=O)c3ccc(OC(C)C)c(Cl)c3)cc2)cn1C
log10 of TGI: 1.25

Query: Give log10 of TGI for "CCCCC[C@H]1C/C=C2/C(=O)C=C[C@@H]2C/C=C\CCCC(=O)O1" tested on SNB-19 CNS.
Result: 0.87

Query: Provide log10 of TGI, recorded with SNB-19 CNS, of CSCSCC(CO)NC(=O)/C=C\c1c(C)[nH]c(=O)[nH]c1=O (stereo unspecified)
Result: 2.29

Query: Tell me its log10 of TGI on SNB-19 CNS: "CCSc1c2ccccc2nc2c(OC)ccc(OC)c12"
Result: 1.86

###

Test system: NCI-H522 lung
Experiment: NCI tumour cell line growth inhibition, 48 h
measured_metric: TGI (µM)
Provide the reading as a plain figure in µM.

molecule: Cc1cc(O)c2c(c1)OC1(C)CCC3C(C)(C)CCCC34COC2C14 (stereo unspecified)
TGI [µM]: 34.6
//
molecule: Nc1ccc(C(=O)N/C(=C\c2ccc3c(c2)OCO3)c2nc3ccccc3s2)cc1
TGI [µM]: 28.5
//
molecule: O=C(NC1=C(Cl)C(=O)c2ccccc2C1=O)C(=O)c1c(O)c2ccccc2oc1=O
TGI [µM]: 16.1
//
molecule: CN(C)CCN=c1nc2c(c(N)n1-c1ccccc1)c(=S)n(-c1ccccc1)c(=S)n2-c1ccccc1
TGI [µM]: 6.82

Then this molecule:
Query: Tell me TGI reported for CC(Cl)(CCC(Cl)C(C)(C)Cl)C(=O)CBr (stereo unspecified)
Result: 3.94

###

System: HCT-15 colon
Assay: NCI tumour cell line growth inhibition, 48 h
The following molecules are shown together with reported TGI values.

Query: # return TGI for COC(=O)CCC(NC(=S)N/N=C(\C)c1cccs1)C(=O)OC (stereo not drawn) , test system: HCT-15 colon
Result: > 100 µM

###

Test system: TK-10 renal
Experiment: NCI tumour cell line growth inhibition, 48 h
Measured GI50, listed per entry for reference.

compound: CCCCC[C@H]1C/C=C2/C(=O)C=C[C@@H]2C/C=C\CCCC(=O)O1
GI50: 0.171 µM

Query: Return the recorded GI50 value; entry: COc1c(OC2OC(C)C(O)C(O)C2O)c(OC)c2oc(-c3ccc(O)cc3)cc(=O)c2c1O (stereo unspecified)
Result: 72.2 µM

Query: Supply reported GI50 belonging to this compound: "CCOC(=O)c1sc(NC(=O)COc2ccc(/C=C3\CCc4cc(OC)ccc4C3=O)cc2)nc1C"
Result: 3.34 µM

Query: Return GI50 (reported value) for this compound: "CSCc1ncc(-c2ccc(C(F)(F)F)cc2)c(NC2CCCCCC2)n1"
Result: > 10 µM

Query: Query GI50 for "Cn1cc(-c2csc(-c3ccc(Cl)cc3)n2)c2cccnc21"
Result: 12.4 µM

###

Test system: RXF 393 renal
Assay: NCI tumour cell line growth inhibition, 48 h; in the data active = GI50 below about 0.43 µM; inactive = the rest
Select the correct class. Options are 1 (yes) for active, 0 (no) for inactive and nothing else.

compound: CN(Cc1cnc2nc(N)nc(N)c2n1)c1c(Cl)cc(C(=O)NC(CCC(=O)O)C(=O)O)cc1Cl (stereo unspecified)
classification: 0 (no)

Query: Field: outcome | Entry: "C/C(=N\NC(=S)N1CCCC1)c1ccccn1"
Result: 1 (yes)

Query: Look up the recorded call for "CCCC(=O)Nc1cc(/C=C/C(=O)N2C[C@@H]3C[C@]34C2=CC(=O)c2[nH]cc(C)c24)n(C)c1" in this test.
Result: 1 (yes)

Query: What outcome does the record of this test show for "CC(=O)c1nc(-c2ccc(C[C@@H](CNC(=O)CN(C)C)NC(=O)c3ccc(OC(C)C)c(Cl)c3)cc2)cn1C" ?
Result: 1 (yes)

###

System: SF-539 CNS
Assay: NCI tumour cell line growth inhibition, 48 h; in the data active means GI50 below about 0.43 µM; inactive means the rest
Select the correct class. Options are 1 (yes) for active, 0 (no) for inactive and nothing else.

compound: Cc1nc(C(=O)OCc2ccccc2)cc(OCc2ccccc2)c1C
classification: 0 (no)
--
compound: CC(C)(O)c1cc(Nc2cc(Oc3cn(C4CC4)nc3C3CCOCC3)ccn2)ccn1
classification: 0 (no)
--
compound: CSC(=S)NCc1cn(C)c2ccccc12
classification: 0 (no)
--
compound: CN(Cc1cnc2nc(N)nc(N)c2n1)c1c(Cl)cc(C(=O)NC(CCC(=O)O)C(=O)O)cc1Cl (stereo not given)
classification: 1 (yes)
--
compound: COc1ccc(N=c2nc3sc4cc(Cl)ccc4n3c(N)c2C#N)cc1
classification: 0 (no)
--
compound: COc1cc(N)c(Cl)cc1C(=O)N[C@@H]1CCN(CCCOc2ccc(F)cc2)C[C@@H]1OC
classification: 0 (no)

Query: Please share the test call associated with COc1ccc(C2=NNC(c3sc(Cl)nc3Cl)C2)cc1 (stereo not given) .
Result: 0 (no)

Query: Short answer needed: outcome of this test for "CN(C)CCN=c1nc2c(c(N)n1-c1ccccc1)c(=S)n(-c1ccccc1)c(=S)n2-c1ccccc1" ?
Result: 0 (no)

Query: Called result for "COC(=O)c1c(C(=O)O)c(-c2ccccc2)c(-c2ccccc2)c(-c2ccccc2)c1-c1ccccc1"
Result: 0 (no)

Query: For this compound, state the assay outcome: "C=C(CN1CCc2ccccc2C1)c1ccc(CCCC(=O)Nc2ccccc2N)cc1"
Result: 0 (no)

###

Tested on: SK-OV-3 ovarian
Experiment: NCI tumour cell line growth inhibition, 48 h
measured_metric: TGI

structure_notation: O=Cc1c2c(cc3c1CC1(C3)Cc3cc4c(c(C=O)c3C1)CCC4)CCC2
target_or_test_system: SK-OV-3 ovarian
TGI: > 100 µM

Query: Specify measured TGI for "C=C1c2nc3ccccc3n2C=C(c2ccccc2)N1c1ccc(C)cc1" .
Result: > 100 µM

Query: Give the reported value of TGI for this record: "C/C(=N\NC(=S)N1CCCC1)c1ccccn1"
Result: 11.2 µM

###

Test system: A498 renal
Test: NCI tumour cell line growth inhibition, 48 h
Entries and their log10(TGI)
In our notation, the value equals log10 of TGI in µM.

Study these solved cases before continuing.
compound: COc1ccc(/C=C(\C#N)c2cc(OC)c(OC)c(OC)c2)cc1
numeric_value: 0.20

compound: Cc1cc(O)c2c(c1)OC1(C)CCC3C(C)(C)CCCC34COC2C14 (stereo not drawn)
numeric_value: 1.41

compound: O=C(NCc1cn(Cc2cccc(Oc3ccccc3)c2)nn1)c1cccnc1NCc1ccc(Cl)cc1
numeric_value: 0.90

compound: C/C(=N\NC(=S)N1CCCC1)c1ccccn1
numeric_value: 0.37

compound: CCSc1c2ccccc2nc2c(OC)ccc(OC)c12
numeric_value: 1.91

compound: CCOc1ccc2cc(-c3nn(CC4CCN(C)CC4)c4ncnc(N)c34)ccc2c1
numeric_value: 1.40

Query: Fill in reported log10(TGI) for this entry: "CC(C)(C)OC(=O)NCCCCCCCCCCCCn1c2c(c3ccccc3c1=O)C(=O)c1ccccc1-2"
Result: 1.84

###

Test system: 786-0 renal
Assay: NCI tumour cell line growth inhibition, 48 h
Catalogue of TGI values

Example results:
molecule: CC(C)C(Br)C(=O)NCC(=O)O (stereo not given)
TGI: > 100 µM
--
molecule: CCOC(=O)c1sc(NC(=O)COc2ccc(/C=C3\CCc4cc(OC)ccc4C3=O)cc2)nc1C
TGI: 24.7 µM
--
molecule: CC1(C)CC(=O)C2=C(C1)NC(=S)C(C#N)C2c1ccccc1 (stereo not given)
TGI: > 100 µM
--
molecule: OC(Cc1cccc2ccccc12)CN1CCC(c2ccccc2)CC1 (stereo not given)
TGI: 28.3 µM
--
molecule: C#CCn1c(I)cc2c(c1=O)COC(=O)[C@]2(O)CC
TGI: > 100 µM

Query: Please indicate TGI recorded for CNC(=O)NCCCCC(NC(C)=O)C(=O)NCc1ccccc1 (stereo not given)
Result: > 100 µM

Query: Determine its reported TGI: "BrCc1ccc2ccc3ccc(CBr)nc3c2n1"
Result: 7.58 µM

Query: In one line, give reported TGI of the entry Nc1ccccc1SC(/C=C/NNC1=NC(c2ccccc2)C(c2ccccc2)=NN1)c1ccccc1 (stereo not given) .
Result: 25 µM

Query: Give recorded TGI. "C[C@]12CC[C@H]3[C@@H](CC=C4C[C@@H](O)CC[C@@]43C)[C@@H]1C/C(=C\c1ccc([N+](=O)[O-])cc1)[C@@H]2O"
Result: 22.8 µM

Query: Please give measured TGI of the following entry: "O=C1C(=O)N(c2cc(Cl)ccc2Cl)C(=O)C(=O)C1c1nc2ccccc2s1"
Result: > 100 µM
